Assay Procedure: CEETOX_H295R_CORTIC_noMTC: CeeTox H295R High-throughput Steroidogenesis Assay for Corticosterone (CORTIC), maximum tolerated concentration (MTC) filtered results only (AID 2283917)
Measurement Setup: actives raise or lower the signal
The source made the active and inactive calls. The calls were made as follows: active = hit-call score of the fitted dose curve at least 0.9, where 1 is the maximum; inactive = score below 0.9.
Give your call using only these classes: T = active, F = inactive

Study these solved cases before continuing.
- Molecule: "O=C(OC1CCCCC1)c1ccccc1C(=O)OC1CCCCC1"
  Group Label: "F"
- Molecule: "c1cc[c]([Hg][c]2ccccc2)cc1"
  Group Label: "T"
- Molecule: "Cn1sc(Cl)cc1=O"
  Group Label: "F"

Now for another entry.
Tell me the assay call for CCC1(c2ccc(N)cc2)CCC(=O)NC1=O (centres undefined) please.
F

====

Read-out: Vascular cell adhesion molecule 1 (VCAM1), VCAM1 (gene 7412)
Assay Procedure: BSK_hDFCGF_VCAM1: BioMAP Diversity Plus: hDFCGF Assay for Vascular cell adhesion molecule 1 (VCAM1) Biomarker Activity (AID 2283065)
Measurement Setup: primary human foreskin fibroblasts; actives raise or lower the signal
Calls of active or inactive are those of the source. Rule for the calls: active = hit-call score of the fitted dose curve at least 0.9, where 1 is the maximum; inactive = score below 0.9.
Give your call using only these classes: active, inactive

Study these solved cases before continuing.
- Compound: "COP(=S)(OC)Oc1c(Cl)cc(C)cc1Cl"
  Group Label: "active"
- Compound: "CCOP(=S)(OCC)Oc1nc(Cl)c(Cl)cc1Cl"
  Group Label: "active"
- Compound: "C(=NC1CCCCC1)=NC1CCCCC1"
  Group Label: "active"
- Compound: "O=C(O)C(F)(F)C(F)(F)C(F)(F)C(F)(F)C(F)(F)C(F)(F)F"
  Group Label: "inactive"
- Compound: "COP(=S)(OC)Oc1ccc(Sc2ccc(OP(=S)(OC)OC)cc2)cc1"
  Group Label: "inactive"
- Compound: "CCOP(=S)(OCC)SCCS(=O)(=O)CC"
  Group Label: "inactive"
- Compound: "CN(C)N=O"
  Group Label: "inactive"
- Compound: "CCOP(=S)(OCC)SCSP(=S)(OCC)OCC"
  Group Label: "inactive"
- Compound: "Oc1cccc2cccnc12"
  Group Label: "active"
- Compound: "ClC1=C(Cl)[C@]2(Cl)[C@H]3[C@H]([C@H]4C=C[C@H]3C4)[C@@]1(Cl)C2(Cl)Cl"
  Group Label: "active"

Tell me the assay call for `O=C(OC1CCCCC1)c1ccccc1C(=O)OC1CCCCC1` please.
active

Tell me the assay call for `CCN1CCC2(CC1)COc1cc3c(cc12)N(C(=O)c1ccc(-c2ccc(-c4nnc(C)o4)cc2C)cc1)CC3` please.
active

====

Read-out: Thrombomodulin, THBD (gene 7056)
Assay Procedure: BSK_CASM3C_Thrombomodulin: BioMAP Diversity Plus: CASM3C Assay for Thrombomodulin Biomarker Activity (AID 2283051);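 also: thrombomodulin protein level measured by ELISA 24 h after dosing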
Measurement Setup: primary human coronary artery smooth muscle cells; actives raise or lower the signal
Calls of active or inactive are those of the source. Rule for the calls: active = hit-call score of the fitted dose curve at least 0.9, where 1 is the maximum; inactive = score below 0.9.
Give your call using only these classes: active, inactive

Study these solved cases before continuing.
- Molecule: "CC(C)(C)CC(C)(C)c1ccc(O)cc1"
  Group Label: "active"
- Molecule: "CCCCC(CC)CO[N+](=O)[O-] (stereo not drawn)"
  Group Label: "inactive"

Tell me the assay call for `Oc1cccc2cccnc12` please.
active

Tell me the assay call for `CC(C)c1ccc(CO)cc1` please.
inactive

Tell me the assay call for `CCCCCCCCc1ccc(O)cc1` please.
active
